Assignment: determine reported LD50 for the given compounds.
Assay: Acute toxicity, lethal dose 50
Conditions: mouse, in vivo, po, read-out: Lethal dose 50 (mouse) / DL 50 (mouse) (converted)
One number for each entry, in mg/kg.

Below, 2 compounds whose answers are already recorded.
If you can, please state the reported LD50 value of COc1ccccc1C(=O)CCn1c(CN2CCN(CC(=O)NC(C)C)CC2)nc2ccccc21 .
120

Also CCCN(CCC)C(=O)CN1CCN(Cc2nc3ccccc3n2CCC(=O)c2ccccc2)CC1 , if possible.
2100

// switching to the query compound
If you can, please state the reported LD50 value of CN(C)C(=O)CN1CCN(Cc2nc3ccccc3n2CCC(=O)c2ccccc2)CC1 .
716
